system: UniProt:Q96RI1
test-summary: FXR cellular assay (FXR-SRCP β-gal enzyme fragment complementation in CHO-K1 cells, chemiluminescence)
applied-conditions: CHO-K1 cells with SRCP-EA and ProLink-labeled FXR, 0-10 micromolar compound, 37° C. for 6h, read-out: EC50 FXR-cell Luminescence/
Protocol: A cell based FXR assay was used to detect protein-protein interactions between an activated (ligand-bound), full length human FXR protein and a nuclear fusion protein containing a Steroid Receptor Coactivator Peptide (SCRP) domain. […] CHO-K1 cells containing SRCP-EA and ProLink-labeled FXR were plated in 384-well microplates and incubated at 37° C. overnight. […] Microplates were analyzed using an Envision reader (PerkinElmer Life and Analytical Sciences, Signal=chemiluminescence).
The entries below come with measured EC50 values attached.
The reply should contain only the number, in µM.

In [3]: df
Out[3]:
                                   compound          system  quantity_kind  recorded_number
0  C[C@@H]1C[C@H](OCc2c(-c3ccccc3OC(F)(F)F)noc2C2CC2)CCN1c1ccc(-c2noc(=O)[nH]2)cn1  UniProt:Q96RI1           EC50            0.196
1  O=c1cc(-c2ccc(N3CCC(OCc4c(-c5ccccc5OC(F)(F)F)noc4C4CC4)C(F)(F)C3)cc2)o[nH]1 (centres unmarked)  UniProt:Q96RI1           EC50             1.53
2  O=c1[nH]c(-c2cccc(N3CCC(OCc4c(-c5c(Cl)cccc5Cl)noc4C4CC4)CC3)c2)no1  UniProt:Q96RI1           EC50             1.23

Now consider a different compound.
Lookup result for "O=c1cc(-c2ccc(N3[C@@H]4CC[C@H]3C[C@@H](OCc3c(-c5ccccc5OC(F)(F)F)noc3C3CC3)C4)nc2)o[nH]1" ; measured EC50: 0.0576

* * *

system: ligand binding domain (LBD) of recombinant human FXR (Homo sapiens (Human))
test-summary: FXR cell free coactivator (SRC-1) recruitment assay, TR-FRET
applied-conditions: FXR LBD (amino acids 244-476) with labeled SRC-1 domain, 25° C. for 60 minutes, activity relative to CDCA maximum; read-out: EC50 FXR- Biochemical TR-FRET/μM
Listed below: EC50 values for each entry.
Please reply with the bare figure in µM and do not write the unit itself.

Study these solved cases before continuing.
                              line_notation   u  recorded_number
0  O=c1[nH]c(-c2ccc(N3CC(OCc4c(-c5c(Cl)cccc5Cl)noc4C4CC4)C3)cc2)no1  µM            0.122
1  O=c1[nH]nc(-c2ccc(N3[C@@H]4CC[C@H]3C[C@@H](OCc3c(-c5ccccc5OC(F)(F)F)noc3C3CC3)C4)cc2)c(=O)[nH]1  µM           0.0127
2  O=c1[nH]nc(-c2ccc(N3CCC(OCc4c(-c5c(Cl)cccc5Cl)noc4C4CC4)CC3)cn2)o1  µM            0.076

Shift focus to the following entry.
Given item "O=c1[nH]c(-c2ncc(N3CCC(OCc4c(-c5c(Cl)cccc5Cl)noc4C4CC4)CC3)cn2)no1" , the value recorded as its EC50 is 0.0281

* * *

system: ligand binding domain (LBD) of recombinant human FXR (Homo sapiens (Human))
test-summary: FXR cell free coactivator (SRC-1) recruitment assay, TR-FRET
applied-conditions: FXR LBD (amino acids 244-476) with labeled SRC-1 domain, 25° C. for 60 minutes, activity relative to CDCA maximum; read-out: EC50 FXR- Biochemical TR-FRET/μM
Measured EC50, listed per entry for reference.
Output spec: scalar in µM, unitless text.

Example molecules with recorded EC50:
>>> df
                              line_notation                                    system  quantity_kind   u  recorded_number
0  O=c1cc(-c2ccc(N3[C@@H]4CC[C@H]3C[C@@H](OCc3c(-c5ccccc5OC(F)(F)F)noc3C3CC3)C4)nc2)o[nH]1  ligand binding domain (LBD) of recombinant human FXR (Homo sapiens (Human))           EC50  µM           0.0095
1  O=c1[nH]c(-c2ccc(N3CCC(OCc4c(-c5ccccc5Cl)noc4C4CC4)CC3)cc2)no1  ligand binding domain (LBD) of recombinant human FXR (Homo sapiens (Human))           EC50  µM           0.0213
2  O=c1[nH]nc(-c2ccc(N3CCC(OCc4c(-c5c(Cl)cccc5Cl)noc4C4CC4)CC3)cn2)c(=O)[nH]1  ligand binding domain (LBD) of recombinant human FXR (Homo sapiens (Human))           EC50  µM           0.0746

Turning now to a further record.
Reported EC50 for "O=c1[nH]c(-c2ccc(N3CCC(OCc4c(-c5c(Cl)cccc5Cl)noc4C4CC4)CC3)s2)no1" was 0.0435

* * *

system: full length human FXR protein (Homo sapiens (Human), UniProt Q96RI1)
Sequence (Q96RI1 whole entry, the tested form may be a part): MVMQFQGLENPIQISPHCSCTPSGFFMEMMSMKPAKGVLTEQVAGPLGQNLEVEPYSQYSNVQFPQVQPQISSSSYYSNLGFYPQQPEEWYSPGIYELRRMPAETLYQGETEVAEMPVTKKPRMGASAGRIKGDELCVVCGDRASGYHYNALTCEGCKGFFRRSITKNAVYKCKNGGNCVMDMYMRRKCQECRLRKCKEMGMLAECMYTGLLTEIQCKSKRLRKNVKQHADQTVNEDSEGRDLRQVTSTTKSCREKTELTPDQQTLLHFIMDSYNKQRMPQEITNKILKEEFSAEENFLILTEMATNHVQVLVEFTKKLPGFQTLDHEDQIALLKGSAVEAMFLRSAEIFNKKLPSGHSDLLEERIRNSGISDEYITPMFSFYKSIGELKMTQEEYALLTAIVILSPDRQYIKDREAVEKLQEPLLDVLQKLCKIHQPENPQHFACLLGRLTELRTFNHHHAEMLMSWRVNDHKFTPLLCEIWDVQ
test-summary: FXR cellular assay (FXR-SRCP β-gal enzyme fragment complementation in CHO-K1 cells, chemiluminescence)
applied-conditions: CHO-K1 cells with SRCP-EA and ProLink-labeled FXR, 0-10 micromolar compound, 37° C. for 6h, read-out: EC50 FXR-cell Luminescence/
quantity-kind: EC50 (nM)
// units = nM; emit number, no label

Below, 3 compounds whose answers are already recorded.
>>> print(df.to_string())
                                   compound  recorded_number
0  O=c1[nH]nc(-c2ccc(N3CCC(OCc4c(-c5ccccc5OC(F)(F)F)noc4C4CC4)CC3)cc2)o1             1290
1  C[C@@H]1CN(c2ccc(-c3noc(=O)[nH]3)cc2)CC[C@@H]1OCc1c(-c2c(Cl)cccc2Cl)noc1C1CC1              271
2  O=c1[nH]c(-c2cc(N3CCC(OCc4c(-c5c(Cl)cccc5Cl)noc4C4CC4)CC3)n[nH]2)no1            11700

Shifting focus to the compound that follows.
Per the record, O=c1[nH]c(-c2ccc(N3CCC(OCc4c(-c5c(F)cccc5F)noc4C4CC4)C(F)(F)C3)nc2)no1 (stereo not shown) has EC50 of 2660

* * *

system: ligand binding domain (LBD) of recombinant human FXR (Homo sapiens (Human), UniProt Q96RI1)
Sequence (Q15788 whole entry partner, one chain of several, the tested form may be a part): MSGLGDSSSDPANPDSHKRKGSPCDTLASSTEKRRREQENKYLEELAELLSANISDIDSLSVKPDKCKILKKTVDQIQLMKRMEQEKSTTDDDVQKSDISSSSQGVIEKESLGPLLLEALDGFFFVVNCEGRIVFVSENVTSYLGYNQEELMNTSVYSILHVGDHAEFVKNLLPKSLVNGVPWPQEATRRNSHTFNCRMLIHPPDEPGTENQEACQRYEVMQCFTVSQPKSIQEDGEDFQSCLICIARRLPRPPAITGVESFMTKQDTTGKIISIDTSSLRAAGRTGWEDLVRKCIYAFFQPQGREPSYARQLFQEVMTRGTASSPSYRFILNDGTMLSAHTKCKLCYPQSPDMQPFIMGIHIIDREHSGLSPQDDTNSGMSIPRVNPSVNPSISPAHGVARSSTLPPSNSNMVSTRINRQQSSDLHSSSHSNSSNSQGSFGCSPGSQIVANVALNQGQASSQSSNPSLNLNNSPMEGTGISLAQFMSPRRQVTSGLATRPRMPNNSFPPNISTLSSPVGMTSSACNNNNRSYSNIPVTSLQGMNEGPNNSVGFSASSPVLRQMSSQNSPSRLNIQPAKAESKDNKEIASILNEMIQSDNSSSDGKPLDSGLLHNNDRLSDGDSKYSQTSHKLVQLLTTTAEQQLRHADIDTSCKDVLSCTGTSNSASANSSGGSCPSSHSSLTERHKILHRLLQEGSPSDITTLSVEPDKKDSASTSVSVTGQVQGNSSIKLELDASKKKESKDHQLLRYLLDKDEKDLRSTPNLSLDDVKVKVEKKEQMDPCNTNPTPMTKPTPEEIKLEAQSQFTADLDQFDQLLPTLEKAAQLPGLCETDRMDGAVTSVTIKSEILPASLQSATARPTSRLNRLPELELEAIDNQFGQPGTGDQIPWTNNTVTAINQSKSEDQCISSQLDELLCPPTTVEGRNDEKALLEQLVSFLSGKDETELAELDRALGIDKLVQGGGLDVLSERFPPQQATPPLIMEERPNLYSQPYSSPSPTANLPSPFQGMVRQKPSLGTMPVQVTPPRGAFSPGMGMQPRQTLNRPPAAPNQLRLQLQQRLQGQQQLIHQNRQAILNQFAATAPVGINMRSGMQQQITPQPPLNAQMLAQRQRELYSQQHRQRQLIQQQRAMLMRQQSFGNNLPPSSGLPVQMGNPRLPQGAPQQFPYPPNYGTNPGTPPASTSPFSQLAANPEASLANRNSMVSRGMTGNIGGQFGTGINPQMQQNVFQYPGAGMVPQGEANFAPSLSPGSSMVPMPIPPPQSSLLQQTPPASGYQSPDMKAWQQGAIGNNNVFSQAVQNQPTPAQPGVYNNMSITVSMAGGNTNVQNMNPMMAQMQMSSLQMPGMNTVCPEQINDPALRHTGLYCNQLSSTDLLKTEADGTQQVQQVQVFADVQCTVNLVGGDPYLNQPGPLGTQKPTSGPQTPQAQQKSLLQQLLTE
test-summary: FXR cell free coactivator (SRC-1) recruitment assay, TR-FRET
applied-conditions: FXR LBD (amino acids 244-476) with labeled SRC-1 domain, 25° C. for 60 minutes, activity relative to CDCA maximum; read-out: EC50 FXR- Biochemical TR-FRET/μM
List of EC50 values.
Express the result in µM but write the number alone.

>>> df
                                   compound  quantity_kind  recorded_number
0  O=c1[nH]c(-c2ccc(N3CCC(OCc4c(-c5c(F)cccc5F)noc4C4CC4)CC3)cc2)no1           EC50            0.111
1  O=c1[nH]nc(-c2ccc(N3CCC(OCc4c(-c5c(Cl)cccc5Cl)noc4C4CC4)CC3)nc2)c(=O)[nH]1           EC50           0.0112
2  O=c1[nH]c(-c2ccc(N3CCCC(OCc4c(-c5c(F)cccc5F)noc4C4CC4)CC3)cc2)no1 (stereo not shown)           EC50           0.0117
3  O=c1[nH]nc(-c2ccc(N3[C@@H]4CC[C@H]3C[C@@H](OCc3c(-c5ccccc5OC(F)(F)F)noc3C3CC3)C4)nc2)o1           EC50           0.0264
4  O=c1[nH]nc(-c2ccc(N3CCC(OCc4c(-c5c(Cl)cccc5Cl)noc4C4CC4)CC3)nc2)o1           EC50           0.0494

// sample "C[C@H]1C[C@@H](OCc2c(-c3c(Cl)cccc3Cl)noc2C2CC2)CCN1c1ccc(-c2noc(=O)[nH]2)cc1" , its EC50 was 0.0633

Record O=c1[nH]c(-c2ccc(N3CCCC(OCc4c(-c5c(Cl)cccc5Cl)noc4C4CC4)CC3)cc2)no1 (stereo not shown) . Reported EC50: 0.0029

* * *

Listing: pEC50 of selected compounds
system: UniProt:Q96RI1
test-summary: FXR cellular assay (FXR-SRCP β-gal enzyme fragment complementation in CHO-K1 cells, chemiluminescence)
applied-conditions: CHO-K1 cells with SRCP-EA and ProLink-labeled FXR, 0-10 micromolar compound, 37° C. for 6h, read-out: EC50 FXR-cell Luminescence/
In textbook form, pEC50 equals minus log to base ten of the concentration in mol/L.

Example cases with answers are listed next.
In [3]: df
Out[3]:
                                   compound  recorded_number
0  O=c1[nH]nc(-c2ccc(N3CCC(OCc4c(-c5c(Cl)cccc5Cl)noc4C4CC4)CC3)cc2F)c(=O)[nH]1             6.61
1  N#Cc1n[nH]c(=O)n(-c2ccc(N3CCC(OCc4c(-c5ccccc5OC(F)(F)F)noc4C4CC4)CC3)cc2)c1=O             4.64
2  O=c1cn[nH]c(=O)n1-c1ccc(N2CCC(OCc3c(-c4c(Cl)cccc4Cl)noc3C3CC3)CC2)nc1             5.83
3  C[C@@H]1C[C@H](OCc2c(-c3ccccc3Cl)noc2C2CC2)CCN1c1ccc(-c2noc(=O)[nH]2)cn1             7.26
4  O=c1[nH]nc(-c2ccc(N3CCC(OCc4c(-c5c(Cl)cccc5Cl)noc4C4CC4)CC3)nc2)o1             6.56
5  O=c1[nH]c(-c2ccc(N3CCC(OCc4c(-c5c(F)cccc5F)noc4C4CC4)CC3)nc2)no1             5.84

API: the following record is the query input.
Summary: "O=c1[nH]nc(-c2ccc(N3CCC(OCc4c(-c5c(Cl)cccc5Cl)noc4C4CC4)CC3)cc2)c(=O)[nH]1" , UniProt:Q96RI1, pEC50 = 6.39
